# test: Components of the Cytosolic LPS Sensing Pathway: Gene Identification via Genome-wide siRNA Screen
# conditionParameters: RAW264.7 macrophages, IL-1a HTRF, actives lie on both sides, screened at 100 nM (by protocol), cells primed 5 h with Pam3CSK4 first
The campaign covered roughly 53,000 sequences. About 3,700 (7%) were called active.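 The calls were made as follows: active = gene knockdowns whose robust z-score for IL-1 alpha signal is at least 2 or at most -2, so actives lie on both sides; inactive = the rest.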 This excerpt belongs to a sample that is enriched for actives.
Outcomes: active, inactive

* GGAUCUACGCAAGCAAGCATT against Oxnad1 | active
* CCUACCGUUACCUAAGUGATT against Kcnj5 | inactive
* GGGCUUAAGCUUUGAGGGUTT against Foxs1 | inactive
* GGAGAUUGGAUCCCGAAACTT against Pxn | inactive
* GGACAUGACAUUUUUACGCTT against Cyp4f16 | inactive
* GCUGAUGUGAAUGGCUCACTT against Gmeb2 | inactive
* GGCUUUUCUAGUUCCUCAATT against Pdzd7 | active
* CCAAGUCAGUGCUGUAAAGTT against F830104G03Rik | inactive
* GGUGGUACGCAAUCAAAAGTT against Galnt17 | active
* GGGUUGUUGAGACUUCCACTT against Hmbs | active
* GGGACAUCAGAUUAUUCAUTT against Zfp87 | inactive
* GGUUGUGCACAGCAGUGUUTT against Crct1 | inactive
